# Tested on: K24384-001-R-PDC complex spheroid viability;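 also: spheroids exposed to agents for seven days before luminescence viability reading; 100% = DMSO vehicle control viability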
# assay_method_text: Anticancer human tumor K24384-001-R-PDC patient-derived pancreatic adenocarcinoma cell line growth inhibition
# particulars: second compound 0.316 µM; first compound 3.16 µM; active compounds read low
readout_kind: viability, T/C (%)
Numbers only here, please. The scale is %.

// lookup viability, T/C for CC1(C)CCC(CN2CCN(c3ccc(C(=O)NS(=O)(=O)c4ccc(NCC5CCOCC5)c([N+](=O)[O-])c4)c(Oc4cnc5[nH]ccc5c4)c3)CC2)=C(c2ccc(Cl)cc2)C1 + NC1CCC(NC2CC2c2ccccc2)CC1
44.6

Request: CC(C)c1c(-c2ccccc2)nc2c(C#N)c[nH]n2c1=O + NC1CCC(NC2CC2c2ccccc2)CC1
77.1

Can you check CC1COCCN1c1cc(C2(S(C)(=N)=O)CC2)nc(-c2ccnc3[nH]ccc23)n1 (stereo not drawn) + NC1CCC(NC2CC2c2ccccc2)CC1 next?
45.5
